- Test system: Sam68 (KHDRBS1)
- methodDescription: Sam68 small-molecule binders, primary screen, biochemical, small-molecule microarray, 635 nm fluorescence (AID 1125);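 further: score merges 667 nm channel intensity with signal to noise over triplicate slides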
- testConditions: small-molecule microarray binding, higher = more signal
Class T: composite z-score at least 0.5. Class F: composite z-score below 0.5.

# compound, assignedCategory
data = [
    ("NC(=O)N1C(=O)C2C(C1=O)C1C=C(CCCO)C2C(c2cccs2)N1Cc1cc2c(cc1Br)OCO2 (configuration not stated)", "F"),
]

Please check the record C=CCNC(=O)[C@@H]1[C@H]2C(=O)O[C@H](c3ccccc3)[C@H](c3ccccc3)N2[C@H](c2ccccc2OCCO)[C@@]12C(=O)N(C(=O)OCCOC)c1ccc(C#CC3=CCCCC3)cc12 and state if its composite z-score is at or above 0.5.
T

Form field: composite z-score at least 0.5? Entry: COCCCNC(=O)[C@@]1(Sc2ccc(C)cc2)CC(=O)N(Cc2cc(C(F)(F)F)cc(C(F)(F)F)c2)[C@@H]1c1ccc(CO)cc1
T

For this compound, is measured composite z-score 0.5 or higher? [N-]=[N+]=NCc1ccccc1C[C@@]1(C(N)=O)N=C(c2ccc(OCCCO)cc2)O[C@@H]1c1ccccc1CN=[N+]=[N-]
T
